- Test system: HOP-62 NSCLC
- test name: NCI tumour cell line growth inhibition, 48 h
property label: TGI

Specify reported TGI for the compound shown: c1ccc2nc3c(cc4ccccn43)nc2c1
74.1 µM

Return TGI (reported value) for this compound: CCN(CC)CC(=O)N1CCc2c([nH]c3ccccc23)C1c1cccnc1 (stereo unspecified)
> 100 µM

Give the measured TGI for Cc1nn(C(=O)Cc2ccccc2)c2c1C(c1ccc(O)cc1)SC(N)=N2 (stereo unspecified)
> 100 µM

Answer with the recorded TGI for the compound listed here: N#CC(C#N)=CNC(=S)c1ccncc1
> 100 µM

// Input: COc1ccc2nc3cc(Cl)ccc3c(NCCCNCCCNc3c4ccc(Cl)cc4nc4ccc(OC)cc34)c2c1 . Output its TGI only.
0.14 µM

Indicate its recorded TGI; the compound in question is OC(c1ccc(Br)cc1)(c1cccs1)C1CC1 (stereo unspecified)
47.2 µM

Retrieve TGI measured for O=c1c2c3c(sc2n2c(-c4cc(-c5ccccc5)nn4-c4ccccc4)nnc2n1Cc1ccccc1)CCCC3 and print it.
> 100 µM

# return recorded TGI for entry C=CCO/N=C/c1cc(NC(=S)c2ccoc2C)ccc1Cl
29.5 µM

State its TGI for this compound: CC1(Cc2ccccc2)NC(=S)NC1=O (stereo unspecified)
> 100 µM

Look up and report measured TGI for this entry: Cn1c2ccccc2c2c(=O)c3ccccc3[nH]c21
> 100 µM

In one line, give reported TGI of the entry CN(C)c1nc(=NCc2ccccc2)ss1 .
> 10 µM

* * *

- System: UO-31 renal
- test name: NCI tumour cell line growth inhibition, 48 h
property label: TGI

Hello, please tell me recorded TGI for this one: CCCNC(=O)CCC(C)[C@H]1CCC2C3C(C[C@H](OC(C)=O)[C@@]21C)[C@@]1(C)CCC2(C[C@H]1C[C@H]3OC(C)=O)OOC1(CCC(C)CC1)OO2 (stereo not given in full)
2.42 µM

Return the recorded TGI value; entry: CC(C)/C(Cl)=N\OC(=O)Nc1ccc(C#N)cc1
21.2 µM

Identify measured TGI corresponding to C#CCC(N)(CO)C(=O)O (stereo not given)
> 100 µM

Given the molecule CCSc1nc(N)c2cn[nH]c2n1 , write its reported TGI.
> 100 µM

Name the recorded TGI of the molecule listed here: Cc1ccc(S(=O)(=O)N/N=C(\c2nc3ccc([N+](=O)[O-])cc3[nH]c2=O)C(O)c2ccccc2Cl)cc1 (stereo not given)
> 100 µM

Report TGI for CC1(Cc2ccccc2)NC(=S)NC1=O (stereo not given)
> 100 µM

Please give measured TGI of the following entry: O=C1C[C@H](Sc2ccccc2)C2(OCCO2)[C@@H](Sc2ccccc2)C1
3.49 µM

Tell me its TGI given CCCCCCCCCCCC[n+]1ccccc1 (tested in a mixture with another compound) as the entry.
14.8 µM

Assign TGI to the following record: O=C(/C=C/c1ccsc1)c1ccsc1
28.7 µM

Look up TGI of CC(=O)[O-].CC(=O)[O-].CC(=O)[O-].CC(=O)[O-].[Mo+2].[Mo+2] and report it.
> 100 µM

* * *

- System: UO-31 renal
- test name: NCI tumour cell line growth inhibition, 48 h
property label: TGI

State, in one line, measured TGI of COc1ccc(-c2nnc(N3CCN(C(=O)CN4CCN(c5ccc(OC)cc5)CC4)CC3)nc2-c2ccc(OC)cc2)cc1
39.7 µM

Identify TGI associated with the compound NNC(=O)c1ccc[n+](CCc2ccccc2)c1
> 100 µM

Please list TGI recorded for the compound O=S(=O)(CCOCc1ccc(-c2ccc3ncnc(Nc4ccc(OCc5cccc(F)c5)c(Cl)c4)c3c2)o1)c1ccccc1
> 25 µM

Return the recorded TGI value; entry: O=S1(=O)NCCCN1CCNc1nccc(-c2c(-c3cccc(O)c3)nc3sccn23)n1
> 96.6 µM

Given the compound CN(C)Cc1cc(C(=O)/C=C/c2ccc(O)cc2)cc(CN(C)C)c1O , write its reported TGI.
> 100 µM

Hello, the source for this data is PubChem BioAssay (NCI), in case you need it.
